Tested on: HTT mRNA
assay details: Splicing RT-qPCR assay, HTT canonical (CJ) and alternative (AJ) junction mRNA
Assay type: cell-based
condition parameters: Homo sapiens; Table 7; AC50 = 50% response in AJ mRNA increase; RT-qPCR, A673 or K562 cells, 24 hours treatment
readout kind: EC50

> print(dat)
                                   compound      assay.result
1  Cc1nc2c(F)cc(-c3nc4sc(C5CCNCC5)cc4s3)cc2s1    100 to 1000 nM
2  Cn1cc2cc(-n3cc4nc(C5CCNCC5)sc4n3)cc(F)c2n1  1000 to 10000 nM

Exam item: Find the measured EC50: item `Cn1cc2cc(-c3nc4sc(N5CCC56CCNCC6)cc4s3)cc(F)c2n1` , target or system HTT mRNA.
Marked response: > 10000 nM

Exam item: Find the measured EC50: item `Cc1cn2nc(-c3cc4cn(C5CCNCC5)nc4s3)cc2c(C)n1` , target or system HTT mRNA.
Marked response: 1000 to 10000 nM

Exam item: Find the measured EC50: item `Cn1cc2cc(-n3cc4sc(C5CCNCC5)cc4n3)c(O)cc2n1` , target or system HTT mRNA.
Marked response: 1000 to 10000 nM

Exam item: Find the measured EC50: item `Cn1cc2cc(-c3cc4cn([C@H]5CCNC[C@@H]5F)nc4s3)cc(F)c2n1` , target or system HTT mRNA.
Marked response: 100 to 1000 nM

Exam item: Find the measured EC50: item `Cc1cn2nc(-c3nc4sc(C5=CCNCC5)cc4s3)cc(C)c2n1` , target or system HTT mRNA.
Marked response: 100 to 1000 nM

Exam item: Find the measured EC50: item `Cc1cc(N2Cc3sc(C4CCNCC4)cc3C2=O)cc2cn(C)nc12` , target or system HTT mRNA.
Marked response: 100 to 1000 nM

----------
System: HTT mRNA
assay details: Splicing RT-qPCR assay, HTT canonical (CJ) and alternative (AJ) junction mRNA
Type: cell-based
condition parameters: Homo sapiens; Table 7; AC50 = 50% response in AJ mRNA increase; RT-qPCR, A673 or K562 cells, 24 hours treatment
readout kind: EC50

Look over these answered cases.
> print(dat)
                                   molecule  measured.target    assay.result
1  Cn1cc2cc(-c3nc4cn(C5CCNCC5)nc4s3)c(O)c(F)c2n1 [Compound 1107]         HTT mRNA  100 to 1000 nM
2  COc1c(-c2cc3cn(C4CCNCC4)nc3s2)cc2cn(C)nc2c1F [Compound 218]         HTT mRNA  100 to 1000 nM
3  Cn1cc2cc(-c3nc4sc(N5CCC56CCNC6)cc4s3)cc(F)c2n1 (stereo not shown) [Compound 200]         HTT mRNA      > 10000 nM
4  Cc1cn2nc(-n3cc4sc(N5CCC(NC(C)(C)C)C5)cc4n3)cc(C)c2n1 (stereo not shown) [Compound 189]         HTT mRNA      > 10000 nM
5  Cn1cc2cc(-c3cc4sc(C5CCNCC5)nc4s3)cc(F)c2n1 [Compound 124]         HTT mRNA        < 100 nM

Exam item: Reported EC50, molecule Cn1cc2cc(-c3nc4sc(N5CCC56CCCNC6)cc4s3)cc(F)c2n1 (stereo not shown) [Compound 202] : ____
Marked response: > 10000 nM

Exam item: Reported EC50, molecule Cc1cc(-c2nc3sc(C4CCNCC4)cc3s2)cc2cn(C)nc12 [Compound 238] : ____
Marked response: < 100 nM

Exam item: Reported EC50, molecule Cn1cc2cc(-n3cc4sc(C5CCNCC5)cc4n3)ccc2n1 [Compound 100] : ____
Marked response: 1000 to 10000 nM

Exam item: Reported EC50, molecule Cc1cn2nc(-c3cc4sc(C5CCNCC5)nc4s3)cc(C)c2n1 [Compound 125] : ____
Marked response: 100 to 1000 nM

Exam item: Reported EC50, molecule Cc1nc2c(F)cc(-n3cc4cc(C5CCNCC5)sc4n3)cc2o1 [Compound 157] : ____
Marked response: 100 to 1000 nM

Reference for the values: patent US20250109140A1
